# SYSTEM_UNDER_TEST: BAF3-KIF5B-RET cells (Homo sapiens, UniProt P07949)
# Construct: fused on or other part: P33176 (Kinesin-1 heavy chain)
# Sequence (P07949 whole entry, change not shown, the tested form may be a part): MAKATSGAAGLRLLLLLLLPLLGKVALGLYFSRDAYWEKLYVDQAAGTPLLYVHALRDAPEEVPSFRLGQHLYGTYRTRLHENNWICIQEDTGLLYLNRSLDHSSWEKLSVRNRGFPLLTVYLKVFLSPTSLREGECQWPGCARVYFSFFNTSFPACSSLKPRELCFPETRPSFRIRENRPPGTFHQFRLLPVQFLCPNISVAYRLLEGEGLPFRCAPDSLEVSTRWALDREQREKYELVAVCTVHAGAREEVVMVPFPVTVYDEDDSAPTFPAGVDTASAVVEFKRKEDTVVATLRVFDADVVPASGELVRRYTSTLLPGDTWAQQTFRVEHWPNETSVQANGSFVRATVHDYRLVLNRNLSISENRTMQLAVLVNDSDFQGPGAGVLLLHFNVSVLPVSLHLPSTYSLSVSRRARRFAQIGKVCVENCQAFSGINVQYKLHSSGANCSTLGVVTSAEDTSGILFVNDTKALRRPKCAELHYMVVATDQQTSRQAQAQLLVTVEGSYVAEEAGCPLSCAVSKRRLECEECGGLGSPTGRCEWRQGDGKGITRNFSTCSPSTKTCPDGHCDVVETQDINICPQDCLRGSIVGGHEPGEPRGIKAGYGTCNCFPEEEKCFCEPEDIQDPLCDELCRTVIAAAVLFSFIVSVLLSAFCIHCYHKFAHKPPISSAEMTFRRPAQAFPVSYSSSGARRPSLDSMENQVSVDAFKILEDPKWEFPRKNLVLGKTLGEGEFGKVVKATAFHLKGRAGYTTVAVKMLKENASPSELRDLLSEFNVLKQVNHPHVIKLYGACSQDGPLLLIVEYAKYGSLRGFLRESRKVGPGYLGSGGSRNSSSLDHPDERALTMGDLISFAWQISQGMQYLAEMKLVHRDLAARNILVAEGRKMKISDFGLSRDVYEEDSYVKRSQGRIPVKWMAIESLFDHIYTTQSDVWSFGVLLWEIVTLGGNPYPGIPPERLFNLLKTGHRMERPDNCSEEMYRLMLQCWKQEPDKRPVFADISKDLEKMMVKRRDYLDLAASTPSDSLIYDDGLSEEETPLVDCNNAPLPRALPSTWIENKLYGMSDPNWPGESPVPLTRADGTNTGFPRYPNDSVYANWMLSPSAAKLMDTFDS
# TEST: BAF3-KIF5B-RET Cell proliferation assay (CellTiter-Glo, 72 hours)
# Assay type: cell-based
# ASSAY_CONDITIONS: growth inhibition, read-out: BA/F3-KIF5B-RET Cellular activity
READOUT_TYPE: GI50

MOLECULE | SYSTEM_UNDER_TEST | READING
CCOc1cc(-c2cnc(N3C4CC5CC3CC(NC(=O)c3ncccc3Cl)(C5)C4)cn2)c2c(C#N)cnn2c1 | BAF3-KIF5B-RET cells (Homo sapiens, UniProt P07949) | ≤ 10 nM
COc1ccc(CN[C@]2(C)C[C@H]3CN(c4ccc(-c5cc(-c6cnn(C)c6)cn6ncc(C#N)c56)cn4)C[C@H]3C2)cn1 | BAF3-KIF5B-RET cells (Homo sapiens, UniProt P07949) | 50 to 100 nM
CC(C)(O)COc1cc(-c2cnc(N3C4CC5CC3CC(NC(=O)c3ncccc3Cl)(C5)C4)cn2)c2c(C#N)cnn2c1 | BAF3-KIF5B-RET cells (Homo sapiens, UniProt P07949) | ≤ 10 nM
COc1ccc(NC(=O)[C@]2(C)C[C@H]3CN(c4ccc(-c5cc(-c6ccn(C)n6)cn6ncc(C#N)c56)cn4)C[C@H]3C2)cn1 | BAF3-KIF5B-RET cells (Homo sapiens, UniProt P07949) | ≤ 10 nM

Summary for this molecule, `Cn1cc(-c2cc(-c3cnc(N4C[C@@H]5C[C@@](C)(NC(=O)c6ncccc6Cl)C[C@@H]5C4)cn3)c3c(C#N)cnn3c2)cn1` : GI50 is ≤ 10 nM

Summary for this molecule, `Cn1cc(-c2cc(-c3cnc(N4C[C@@H]5C[C@](C)(NC(=O)c6ncccc6Cl)C[C@@H]5C4)cn3)c3c(C#N)cnn3c2)cn1` : GI50 is 10 to 50 nM

###

# SYSTEM_UNDER_TEST: human RET kinase (Homo sapiens, UniProt P07949)
# Sequence (P07949 29-1114): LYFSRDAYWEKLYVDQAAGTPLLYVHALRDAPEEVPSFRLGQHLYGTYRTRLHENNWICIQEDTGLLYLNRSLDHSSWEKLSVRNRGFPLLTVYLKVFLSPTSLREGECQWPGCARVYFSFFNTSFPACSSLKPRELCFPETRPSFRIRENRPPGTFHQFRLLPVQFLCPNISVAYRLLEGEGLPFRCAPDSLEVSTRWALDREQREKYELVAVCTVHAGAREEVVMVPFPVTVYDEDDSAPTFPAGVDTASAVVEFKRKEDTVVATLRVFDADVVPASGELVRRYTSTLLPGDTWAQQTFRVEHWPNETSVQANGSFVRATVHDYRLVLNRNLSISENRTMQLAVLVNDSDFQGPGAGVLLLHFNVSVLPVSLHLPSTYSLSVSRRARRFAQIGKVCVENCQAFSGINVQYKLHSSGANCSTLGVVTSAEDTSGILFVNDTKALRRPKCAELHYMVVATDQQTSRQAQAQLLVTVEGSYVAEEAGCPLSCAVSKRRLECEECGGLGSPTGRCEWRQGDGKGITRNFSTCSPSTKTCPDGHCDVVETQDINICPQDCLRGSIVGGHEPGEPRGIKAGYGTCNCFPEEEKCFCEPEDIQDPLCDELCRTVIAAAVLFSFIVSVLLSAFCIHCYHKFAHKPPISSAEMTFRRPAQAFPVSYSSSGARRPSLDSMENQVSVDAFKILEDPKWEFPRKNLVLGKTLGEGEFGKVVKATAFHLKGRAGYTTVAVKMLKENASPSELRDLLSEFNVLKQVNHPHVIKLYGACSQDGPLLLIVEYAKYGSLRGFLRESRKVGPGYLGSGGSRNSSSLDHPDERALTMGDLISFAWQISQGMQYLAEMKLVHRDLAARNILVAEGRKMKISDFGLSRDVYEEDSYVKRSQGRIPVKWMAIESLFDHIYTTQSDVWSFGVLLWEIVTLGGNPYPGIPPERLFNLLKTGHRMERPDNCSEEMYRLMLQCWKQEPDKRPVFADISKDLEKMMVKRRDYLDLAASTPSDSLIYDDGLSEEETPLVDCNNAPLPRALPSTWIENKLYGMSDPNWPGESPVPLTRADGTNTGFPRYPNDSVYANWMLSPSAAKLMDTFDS
READOUT_TYPE: IC50

COMPOUND | SYSTEM_UNDER_TEST | READING
COc1cccnc1C(=O)N[C@]1(C)C[C@H]2CN(c3cnc(-c4cc(-c5cnn(C)c5)cn5ncc(C#N)c45)cn3)C[C@H]2C1 | human RET kinase (Homo sapiens, UniProt P07949) | ≤ 10 nM
CC(C)(O)COc1cc(-c2ccc(N3C[C@@H]4C[C@@](C)(NC(=O)c5ncccc5Cl)C[C@@H]4C3)nc2)c2c(C#N)cnn2c1 | human RET kinase (Homo sapiens, UniProt P07949) | ≤ 10 nM
Cn1ccc(-c2cc(-c3ccc(N4C[C@@H]5CN(S(=O)(=O)c6c(F)cccc6Cl)C[C@@H]5C4)nc3)c3c(C#N)cnn3c2)n1 | human RET kinase (Homo sapiens, UniProt P07949) | 10 to 50 nM
Cc1ccc(F)cc1C(=O)NC[C@@H]1[C@H]2CN(c3ccc(-c4cc(-c5cnn(C)c5)cn5ncc(C#N)c45)cn3)C[C@@H]12 | human RET kinase (Homo sapiens, UniProt P07949) | ≤ 10 nM
Cn1cc(-c2cc(-c3ccc(N4C[C@@H]5[C@H](CNC(=O)C(O)c6ccccc6)[C@@H]5C4)nc3)c3c(C#N)cnn3c2)cn1 (stereo partly drawn) | human RET kinase (Homo sapiens, UniProt P07949) | ≤ 10 nM

Please turn your attention to the following entry.
# lookup: `Cn1cc(-c2cc(-c3ccc(N4C[C@@H]5[C@@H](CNC(=O)c6cc(F)ccc6Cl)[C@@H]5C4)nc3)c3c(C#N)cnn3c2)cn1` on human RET kinase (Homo sapiens, UniProt P07949), IC50 = ≤ 10 nM

###

# SYSTEM_UNDER_TEST: BAF3-KIF5B-RET cells (Homo sapiens, UniProt P07949)
# Construct: fused on or other part: P33176 (Kinesin-1 heavy chain)
# TEST: BAF3-KIF5B-RET Cell proliferation assay (CellTiter-Glo, 72 hours)
# Format: cell-based
# ASSAY_CONDITIONS: growth inhibition, read-out: BA/F3-KIF5B-RET Cellular activity
READOUT_TYPE: GI50

MOLECULE | GI50
CC(C)(O)COc1cc(-c2cnc(N3C[C@H]4CN(Cc5ccc(C#N)nc5)C[C@H]4C3)cn2)c2c(C#N)cnn2c1 | > 100 nM

Summary for this molecule, `COc1ccc(NC(=O)C23CC4CC(C2)N(c2ccc(-c5cc(-c6cnn(C)c6)cn6ncc(C#N)c56)cn2)C(C4)C3)cn1` : GI50 is ≤ 10 nM

Summary for this molecule, `COc1ccc(CNC(=O)[C@H]2[C@@H]3CN(c4ccc(-c5cc(OCC(C)(C)O)cn6ncc(C#N)c56)cn4)C[C@@H]32)cn1` : GI50 is 50 to 100 nM

Summary for this molecule, `Cn1cc(-c2cc(-c3cnc(N4C5CC6CC4CC(NC(=O)OC(C)(C)C)(C6)C5)cn3)c3c(C#N)cnn3c2)cn1` : GI50 is ≤ 10 nM

Summary for this molecule, `CCOc1cc(-c2cnc(N3C4CC5CC3CC(NC=O)(C5)C4)cn2)c2c(C#N)cnn2c1` : GI50 is > 100 nM

Summary for this molecule, `Cn1cc(-c2cc(-c3ccc(N4C5CC6CC4CC(C(=O)Nc4ncccc4Cl)(C6)C5)nc3)c3c(C#N)cnn3c2)cn1` : GI50 is ≤ 10 nM

Summary for this molecule, CC(C)C(O)C(=O)NC[C@@H]1[C@H]2CN(c3ccc(-c4cc(-c5cnn(C)c5)cn5ncc(C#N)c45)cn3)C[C@@H]12 (stereo partly shown) : GI50 is ≤ 10 nM

###

# SYSTEM_UNDER_TEST: BAF3-KIF5B-RET cells (Homo sapiens)
# Construct: fused on or other part: P33176 (Kinesin-1 heavy chain)
# TEST: BAF3-KIF5B-RET Cell proliferation assay (CellTiter-Glo, 72 hours)
# Assay type: cell-based
# ASSAY_CONDITIONS: growth inhibition, read-out: BA/F3-KIF5B-RET Cellular activity
READOUT_TYPE: GI50

Here's what some known entries look like.
MOLECULE | SYSTEM_UNDER_TEST | READING
COc1cncc(C(=O)N[C@]2(C)C[C@H]3CN(c4cnc(-c5cc(-c6cnn(C)c6)cn6ncc(C#N)c56)cn4)C[C@H]3C2)c1 | BAF3-KIF5B-RET cells (Homo sapiens) | ≤ 0.01 µM
Cn1cc(-c2cc(-c3cnc(N4C5CC6CC4CC(O)(C6)C5)cn3)c3c(C#N)cnn3c2)cn1 | BAF3-KIF5B-RET cells (Homo sapiens) | 0.01 to 0.05 µM

Summary for this molecule, `COc1cccc(C(=O)N[C@]2(C)C[C@H]3CN(c4cnc(-c5cc(-c6cnn(C)c6)cn6ncc(C#N)c56)cn4)C[C@H]3C2)n1` : GI50 is ≤ 0.01 µM

###

compounds and their reported pIC50
# SYSTEM_UNDER_TEST: human RET kinase (Homo sapiens)
pIC50: −log10 of the molar value.

Here's what some known entries look like.
MOLECULE | pIC50
COc1ccc(C(=O)N[C@@H]2C[C@@H]3CN(c4ccc(-c5cc(OCC(C)(C)O)cn6ncc(C#N)c56)cn4)C[C@@H]3C2)cn1 | 7.30 to 8.00
CCOc1cc(-c2ccc(N3C[C@@H]4C[C@@](C)(NC(=O)c5cc(F)ccc5C)C[C@@H]4C3)nc2)c2c(C#N)cnn2c1 | ≥ 8.00

# lookup: `COc1ccnc(C(=O)N[C@]2(C)C[C@H]3CN(c4cnc(-c5cc(-c6cnn(C)c6)cn6ncc(C#N)c56)cn4)C[C@H]3C2)c1` on human RET kinase (Homo sapiens), pIC50 = ≥ 8.00

# lookup: `Cn1cc(-c2cc(-c3ccc(N4C[C@@H]5[C@H](CNC(=O)c6ncccc6Cl)[C@@H]5C4)nc3)c3c(C#N)cnn3c2)cn1` on human RET kinase (Homo sapiens), pIC50 = ≥ 8.00

# lookup: `CC(C)(O)COc1cc(-c2ccc(N3C[C@@H]4[C@H](C3)[C@@H]4NC(=O)c3ncccc3Cl)nc2)c2c(C#N)cnn2c1` on human RET kinase (Homo sapiens), pIC50 = 7.00 to 7.30

# lookup: `CC(C)(O)COc1cc(-c2ccc(N3C[C@H]4CN(C(=O)c5ncccc5Cl)C[C@H]4C3)nc2)c2c(C#N)cnn2c1` on human RET kinase (Homo sapiens), pIC50 = ≥ 8.00

###

Quick record of IC50 values for human KDR kinase (Homo sapiens, UniProt P35968).

MOLECULE | IC50
Cn1cc(-c2cc(-c3cnc(N4C[C@@H]5C[C@@](C)(NC(=O)c6ncccc6Cl)C[C@@H]5C4)cn3)c3c(C#N)cnn3c2)cn1 | 10 to 50 nM

# lookup: `Cn1cc(-c2cc(-c3ccc(N4C[C@@H]5[C@H](C4)[C@@H]5NC(=O)c4ncccc4Cl)nc3)c3c(C#N)cnn3c2)cn1` on human KDR kinase (Homo sapiens, UniProt P35968), IC50 = 10 to 50 nM

# lookup: `COc1ccc(C(=O)NC23CC4CC(C2)N(c2ccc(-c5cc(OCC(C)(C)O)cn6ncc(C#N)c56)cn2)C(C4)C3)cn1` on human KDR kinase (Homo sapiens, UniProt P35968), IC50 = ≤ 10 nM

# lookup: `Cn1cc(-c2cc(-c3ccc(N4C5CC6CC4CC(NC(=O)OC(C)(C)C)(C6)C5)nc3)c3c(C#N)cnn3c2)cn1` on human KDR kinase (Homo sapiens, UniProt P35968), IC50 = ≤ 10 nM

# lookup: `Cn1cc(-c2cc(-c3ccc(N4C[C@@H]5C[C@@](C)(NC(=O)c6ncccc6C#N)C[C@@H]5C4)nc3)c3c(C#N)cnn3c2)cn1` on human KDR kinase (Homo sapiens, UniProt P35968), IC50 = ≤ 10 nM

# lookup: `CC(=O)NC12CC3CC(C1)N(c1ccc(-c4cc(-c5cnn(C)c5)cn5ncc(C#N)c45)cn1)C(C3)C2` on human KDR kinase (Homo sapiens, UniProt P35968), IC50 = ≤ 10 nM

Data provenance is patent US20220220128A1.
